- measurement_protocol: qHTS to identify inhibitors of the type 1 interferon - major histocompatibility complex class I in skeletal muscle: primary screen against the NCATS LOPAC collection (AID 1347405);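 also: human myoblasts with HiBiT tag on endogenous HLA-B stimulated by IFN-beta; lytic HiBiT luminescence reporting HLA-B protein level; % is scaled to controls: 0 for no effect and ±100 for the full control effect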
- condition_set: iHSKM muscle cells, IFN-b-induced MHC-I HiBiT luminescence, 24 h; series mostly up to 45.9 µM
Records with an inconclusive call do not appear. Activity calls are given as the source filed them. Calls follow the shape of the dose curve; as a rule, active = well fitted inhibition curve with a large enough effect; inconclusive = small, poorly fitted or top-dose-only effect; inactive = flat fitted curve, though single readings scatter.
Returns: one label drawn from active, inactive

Below, 3 molecules whose answers are already recorded.
COCCOc1cc2nc[nH]c(=O)c2cc1OCCOC | inactive
CO/N=C(\C(=O)N[C@@H]1C(=O)N2C(C(=O)O)=C(COC(C)=O)CS[C@H]12)c1csc(N)n1 | inactive
COc1cccc(OC)c1OCCNCC1COc2ccccc2O1 (centres undefined) | inactive

[in] # outcome recorded in this test, key = `S=c1[nH]c(-c2ccccc2)cn1-c1ccccc1`
[out] inactive

[in] Tell me the assay call for `O=C1NC(O)=NC1(c1ccccc1)c1ccccc1` please.
[out] inactive

[in] Hi team, can someone confirm the assay call for CC1CN(S(=O)(=O)c2cccc3cnccc23)CCN1 (centres undefined) ?
[out] inactive

[in] Dear all, I need the recorded test outcome for `COc1ccccc1CN[C@@H]1CCCN[C@@H]1c1ccccc1` , thank you.
[out] inactive

[in] Which outcome was assigned to `COc1ccccc1CNCCCCCCNCCCCCCCCNCCCCCCNCc1ccccc1OC` in this test?
[out] inactive

###

- measurement_protocol: Vero cells viability qHTS for Zika virus inhibitors (AID 1347167); also: % is scaled to controls: 0 for no effect and ±100 for the full control effect
- condition_set: cytotoxicity counter-screen (Zika); series mostly up to 45.9 µM
Records with an inconclusive call do not appear. Activity calls are given as the source filed them. The call rests on the fitted dose curve; in most records, active means well fitted cell-killing curve with a large enough effect; inconclusive means small, poorly fitted or top-dose-only effect; inactive means flat fitted curve, though single readings scatter.
recorded_metric: outcome

S=c1[nH]c(-c2ccccc2)cn1-c1ccccc1 | inactive
COc1ccc(Br)cc1S(=O)(=O)NC(=O)/C=C/c1ccccc1Cc1ccc2ccccc2c1 | inactive
C=C[C@@H]1CN2CC[C@@H]1C[C@H]2[C@H](O)c1ccnc2ccc(OC)cc12 | inactive
NC(=O)C(=O)O | inactive
CCCCN(CC)c1nc(C)nc2c1c(C)cn2-c1c(C)cc(C)cc1C | inactive
Cc1ccccc1CNc1ncnc2c1ncn2C1OC(CO)C(O)C1O (stereo not drawn) | inactive
CN1CCN(c2cc3c(nn2)Oc2ccccc2N3C)CC1 | inactive

[in] Can you share its outcome? I mean this compound: `Cn1c(=O)c2[nH]c(-c3ccccc3)nc2n(C)c1=O`
[out] inactive

###

- measurement_protocol: qHTS Validation Assay to Find Inhibitors of Chronic Active B-Cell Receptor Signaling (AID 485345);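 also: 0% = untreated basal cells and 100% = 10 µM MG-132 proteasome inhibitor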
- condition_set: ABC-DLBCL cells, chronic BCR signaling reporter, CBG luciferase; series mostly up to 46.1 µM
Inconclusive results are not listed. Calls of active or inactive are those of the source. Calls come from the whole dose curve; as a rule, active = well fitted curve in the direction sought with a large enough effect in the main read-out, with a control signal flat (not every such curve was filed as active); inconclusive = small, poorly fitted or top-dose-only effect, or effect the other way, or a change in a side signal; inactive = no such curve, though single readings can be large or run the other way.
recorded_metric: outcome

C[N+](C)(CCCCCC[N+](C)(C)CCCN1C(=O)c2cccc3cccc(c23)C1=O)CCCN1C(=O)c2cccc3cccc(c23)C1=O | inactive
CN1C2CCC1CC(OC(=O)C(O)c1ccccc1)C2 (stereo not drawn) | inactive
NO | inactive

###

- study_system: Nicotinamide N-methyltransferase (Homo sapiens)
- measurement_protocol: Confirmatory Screen for Target Class Profiling of Small Molecule Inhibitors of Methyltransferases (AID 1745852)
- condition_set: MTase-Glo luminescence, SAH detection, recombinant enzyme; measured here: NNMT max response; stronger effect = lower value
recorded_metric: activity (%)
Form entry: value (%) — number only.

Below: 2 molecules and their reported activity.
N.N.N.N.N.N.N.N.N.N.N.N.N.N.O.O.[Ru+4].[Ru+5].[Ru+5] | -45.3
COc1cc(/C=C/C(=O)CC(=O)/C=C/c2ccc(O)c(OC)c2)ccc1O | -4.44

Query molecule follows.
[in] Consider the molecule shown here: `CC(C)(C)c1ccc(S(=O)(=O)/C=C/C#N)cc1` What is its recorded activity?
[out] -4.25
